Molecular target: human Y2 receptor (human) (UniProt P49146)
Sequence (P49146 whole entry): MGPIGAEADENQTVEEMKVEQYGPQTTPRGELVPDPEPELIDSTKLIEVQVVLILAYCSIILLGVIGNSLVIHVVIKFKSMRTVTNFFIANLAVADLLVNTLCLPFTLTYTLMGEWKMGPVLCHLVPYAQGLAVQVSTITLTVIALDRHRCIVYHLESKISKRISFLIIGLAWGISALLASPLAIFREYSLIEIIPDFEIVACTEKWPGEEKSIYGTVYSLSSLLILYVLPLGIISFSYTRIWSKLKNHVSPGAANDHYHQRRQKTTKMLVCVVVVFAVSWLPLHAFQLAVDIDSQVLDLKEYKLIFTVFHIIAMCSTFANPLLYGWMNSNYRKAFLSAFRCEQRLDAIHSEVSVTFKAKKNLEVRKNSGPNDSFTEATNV
Assay: RBA: [125I]-PYY displacement, hY2R/CHO membranes
Non-standard residues stand in square brackets, D forms with d. Lys(Me2) = CN(C)CCCC[C@H](N)C(=O)O; 4Pal = N[C@@H](Cc1ccncc1)C(=O)O; Cha = N[C@@H](CC1CCCCC1)C(=O)O; dIva = CC[C@@](C)(N)C(=O)O; Nle = CCCC[C@H](N)C(=O)O; dAze = O=C(O)[C@H]1CCN1; Aib = CC(C)(N)C(=O)O
binders and their reported IC50 Ratio (vs PYY(3-36))
Quick one: just the number, no unit, thanks!

# count of solved cases: 3
Ac-S[dAze]RH[Cha][Cha]NL[Aib]TRQR[Cha]-NH2 (SMILES CC(=O)N[C@@H](CO)C(=O)N1CC[C@@H]1C(=O)N[C@@H](CCCNC(=N)N)C(=O)N[C@@H](Cc1c[nH]cn1)C(=O)N[C@@H](CC1CCCCC1)C(=O)N[C@@H](CC1CCCCC1)C(=O)N[C@@H](CC(N)=O)C(=O)N[C@@H](CC(C)C)C(=O)NC(C)(C)C(=O)N[C@H](C(=O)N[C@@H](CCCNC(=N)N)C(=O)N[C@@H](CCC(N)=O)C(=O)N[C@@H](CCCNC(=N)N)C(=O)N[C@@H](CC1CCCCC1)C(N)=O)[C@@H](C)O) [Ac-[D-Aze(2)24, Cha27,28,36, Aib31]-PYY(23-36)]: 1.7
Ac-E[dP][Nle][4Pal][Cha][Cha]NK[Aib]TRQR[Cha]-NH2 (SMILES CCCC[C@H](NC(=O)[C@H]1CCCN1C(=O)[C@H](CCC(=O)O)NC(C)=O)C(=O)N[C@@H](Cc1ccncc1)C(=O)N[C@@H](CC1CCCCC1)C(=O)N[C@@H](CC1CCCCC1)C(=O)N[C@@H](CC(N)=O)C(=O)N[C@@H](CCCCN)C(=O)NC(C)(C)C(=O)N[C@H](C(=O)N[C@@H](CCCNC(=N)N)C(=O)N[C@@H](CCC(N)=O)C(=O)N[C@@H](CCCNC(=N)N)C(=O)N[C@@H](CC1CCCCC1)C(N)=O)[C@@H](C)O) [Ac-[Glu23, D-Pro24, Nle25, Pya(4)26, Cha27,28,36, Lys30, Aib31]-PYY(23-36)]: 2.3
Ac-S[dP]RH[Cha][Cha]N[Lys(Me2)][Aib]TRQR[Cha]-NH2 (SMILES CC(=O)N[C@@H](CO)C(=O)N1CCC[C@@H]1C(=O)N[C@@H](CCCNC(=N)N)C(=O)N[C@@H](Cc1c[nH]cn1)C(=O)N[C@@H](CC1CCCCC1)C(=O)N[C@@H](CC1CCCCC1)C(=O)N[C@@H](CC(N)=O)C(=O)N[C@@H](CCCCN(C)C)C(=O)NC(C)(C)C(=O)N[C@H](C(=O)N[C@@H](CCCNC(=N)N)C(=O)N[C@@H](CCC(N)=O)C(=O)N[C@@H](CCCNC(=N)N)C(=O)N[C@@H](CC1CCCCC1)C(N)=O)[C@@H](C)O) [Ac-[D-Pro24, Cha27,28,36, Lys(Me2)30, Aib31]-PYY(23-36)]: 0.8

Give IC50 Ratio (vs PYY(3-36)) for the following binder: Ac-S[dP][dIva]H[Cha][Cha]NL[Aib]TRQR[Cha]-NH2 (SMILES CC[C@@](C)(NC(=O)[C@H]1CCCN1C(=O)[C@H](CO)NC(C)=O)C(=O)N[C@@H](Cc1c[nH]cn1)C(=O)N[C@@H](CC1CCCCC1)C(=O)N[C@@H](CC1CCCCC1)C(=O)N[C@@H](CC(N)=O)C(=O)N[C@@H](CC(C)C)C(=O)NC(C)(C)C(=O)N[C@H](C(=O)N[C@@H](CCCNC(=N)N)C(=O)N[C@@H](CCC(N)=O)C(=O)N[C@@H](CCCNC(=N)N)C(=O)N[C@@H](CC1CCCCC1)C(N)=O)[C@@H](C)O) [Ac-[D-Pro24, D-Iva25, Cha27,28,36, Aib31]-PYY(23-36)]
14
